- Species: Rattus norvegicus
- procedure-text: Open TG-GATES - Regimen: Daily Repeat
- Format: toxicity, organism-based, Sprague-Dawley
- Parameters: regimen Daily Repeat, gender Male, age 6 weeks
- condition-details: in vivo, po, 100 mg/kg, […], tissue Plasma, route gavage, dose level Low, time 7 day
Exercise: for every item that follows, state its recorded gamma-GTP.

Request: State, in one line, measured gamma-GTP of NC(N)=Nc1nc(CSCCC(N)=NS(N)(=O)=O)cs1
Response: 1.2 IU/L

Request: State, in one line, measured gamma-GTP of COc1ccc2[nH]c([S+]([O-])Cc3ncc(C)c(OC)c3C)nc2c1 (stereo not given)
Response: 0.8 IU/L

Request: State, in one line, measured gamma-GTP of CCOc1ccc(NC(=O)CC(C)O)cc1 (stereo not given)
Response: 1.2 IU/L

Request: State, in one line, measured gamma-GTP of CCOC(=O)CCC(=O)O[C@H]1[C@H](O[C@@H]2[C@@H](C)[C@H](O[C@H]3C[C@@](C)(OC)[C@@H](O)[C@H](C)O3)[C@@H](C)C(=O)O[C@H](CC)[C@@](C)(O)[C@H](O)[C@@H](C)C(=O)[C@H](C)C[C@@]2(C)O)O[C@H](C)C[C@@H]1N(C)C [ERYTHROMYCIN ETHYLSUCCINATE]
Response: 1.6 IU/L

Request: State, in one line, measured gamma-GTP of COC1=CC(=O)C[C@@H](C)[C@]12Oc1c(Cl)c(OC)cc(OC)c1C2=O
Response: 1 IU/L

* * *

- Organism: Rattus norvegicus
- procedure-text: Open TG-GATES - Regimen: Daily Repeat
- Format: toxicity, organism-based, Sprague-Dawley
- Design: regimen Daily Repeat, gender Male, age 6 weeks
- condition-details: in vivo, po, 100 mg/kg, […], tissue Plasma, route gavage, dose level Low, time 28 day
observed-property: Ca
Answer with the number, then the unit.

Request: State, in one line, measured Ca of NC(N)=Nc1nc(CSCCC(N)=NS(N)(=O)=O)cs1
Response: 9.9 mg/dL

Request: State, in one line, measured Ca of CCOc1ccc(NC(=O)CC(C)O)cc1 (stereo not given)
Response: 11 mg/dL

Request: State, in one line, measured Ca of COC1=CC(=O)C[C@@H](C)[C@]12Oc1c(Cl)c(OC)cc(OC)c1C2=O
Response: 10.3 mg/dL

Request: State, in one line, measured Ca of COc1ccc2[nH]c([S+]([O-])Cc3ncc(C)c(OC)c3C)nc2c1 (stereo not given)
Response: 10.5 mg/dL

Request: State, in one line, measured Ca of CCOC(=O)CCC(=O)O[C@H]1[C@H](O[C@@H]2[C@@H](C)[C@H](O[C@H]3C[C@@](C)(OC)[C@@H](O)[C@H](C)O3)[C@@H](C)C(=O)O[C@H](CC)[C@@](C)(O)[C@H](O)[C@@H](C)C(=O)[C@H](C)C[C@@]2(C)O)O[C@H](C)C[C@@H]1N(C)C [ERYTHROMYCIN ETHYLSUCCINATE]
Response: 10.3 mg/dL

* * *

- Species: Rattus norvegicus
- procedure-text: Open TG-GATES - Regimen: Single
- Assay type: toxicity, organism-based, Sprague-Dawley
- Parameters: regimen Single, gender Male, age 6 weeks
- condition-details: in vivo, po, 10 mg/kg, 6 h, tissue Plasma, route gavage, dose level Low
Exercise: for every item that follows, state its recorded PL.
Provide the reading as a plain figure in mg/dL.

Request: State, in one line, measured PL of CN(C)CCCN1c2ccccc2CCc2ccccc21 [IMIPRAMINE]
Response: 137.6

Request: State, in one line, measured PL of CN(C)CCCN1c2ccccc2CCc2ccc(Cl)cc21 [CLOMIPRAMINE]
Response: 149

Request: State, in one line, measured PL of CN(C)CCN(Cc1cccs1)c1ccccn1
Response: 124

Request: State, in one line, measured PL of CC(C)OC(=O)C(C)(C)Oc1ccc(C(=O)c2ccc(Cl)cc2)cc1 [FENOFIBRATE]
Response: 128

Request: State, in one line, measured PL of CC1=C(/C=C/C(C)=C/C=C/C(C)=C/CO)C(C)(C)CCC1 [RETINOL]
Response: 143.8
